assay_details: log P, n-octanol/water partition coefficient
Assay type: physicochemical
property_name: logP
Give only the figure.

## Task Given `NCCNCCNCCN` , respond with its logP.
## Result -2.3

## Task Quote logP reported for `OCCN(CCO)CCN(CCO)CCN(CCO)CCN(CCO)CCN(CCO)CCO` please.
## Result -2.9

## Task Supply reported logP belonging to this molecule: `NCCNCCNCCNCCN`
## Result -2.7

## Task Output logP of `NCCCNCCCNCCCN`
## Result -2.1

## Task Quote logP reported for `NCCN(CCN)CCN` please.
## Result -2.2
